- Tested on: in vitro matured adipocytes
- assay_info: alamar blue cell viability assay (adipocytolytic potential), mature adipocytes
- Type: cell-based
- reported_conditions: Adipocyte; viability, 48 hrs; read-out: IC50 [µM] Adipocytes
# Lookup of reported IC50 keyed by entry
Lab book: enter the figure in µM, no units written.

>>> value_observed("CC[C@H]1[C@@H](O)[C@@H]2[C@H](CC[C@]3(C)[C@@H]([C@H](C)CCC(=O)O)CC[C@@H]23)[C@@]2(C)CC[C@@H](O)C[C@@H]12")
93.9

Query molecule follows.
Which measured IC50 value corresponds to `C[C@H](CCC(=O)O)[C@H]1CC[C@H]2[C@@H]3CC[C@@H]4C[C@H](O)CC[C@]4(C)[C@H]3C[C@H](O)[C@]12C` ?
244
